target: PE-labeled human PD-L1-Ig binding to Jurkat cell line over-expressing human PD-1 (Jurkat-PD-1) (Homo sapiens); construct: expressed in transfected cells; host or cells: Jurkat; experiment: Jurkat-PD-1 Cell Binding High-Content Screening Assay (CBA): Method 1; conditions: Jurkat-hPD-1 cells, PE-labeled PD-L1-Ig 20 nM final; read-out: Jurkat HPDL1 PD1 IC50 (uM) (Method 1)
Sequence (Q15116 25-288): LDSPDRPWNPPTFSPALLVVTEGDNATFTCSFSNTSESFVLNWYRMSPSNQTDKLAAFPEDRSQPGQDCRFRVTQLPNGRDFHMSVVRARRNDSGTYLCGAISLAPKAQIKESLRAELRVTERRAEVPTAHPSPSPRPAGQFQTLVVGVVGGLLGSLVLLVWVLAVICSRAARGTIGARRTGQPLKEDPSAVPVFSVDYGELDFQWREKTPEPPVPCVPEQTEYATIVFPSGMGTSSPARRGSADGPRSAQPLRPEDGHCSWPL
Bridge positions count the residues as written; N and C are the ends. Square brackets hold non-standard residues; d marks the D form. Peptide text beside a SMILES is read from it. Bip = N[C@@H](Cc1ccc(-c2ccccc2)cc1)C(=O)O; NMeA = CN[C@@H](C)C(=O)O; Nle = CCCC[C@H](N)C(=O)O; Dab = NCC[C@H](N)C(=O)O; Nva = CCC[C@H](N)C(=O)O
quantity_kind: IC50 (µM)

CCCC[C@@H]1NC(=O)[C@H](Cc2ccc(-c3ccccc3)cc2)NC(=O)[C@H](C(C)C)NC(=O)[C@H](Cc2c[nH]c3ccccc23)NC(=O)[C@H](CC(=O)O)NC(=O)[C@H](Cc2ccc(O)cc2)NC(=O)[C@H](CC(N)=O)NC(=O)CSC[C@@H](C(=O)N[C@@H](C)C(N)=O)NC(=O)[C@H]([C@@H](C)O)NC(=O)[C@H](C(C)C)NC(=O)[C@H](CC(C)C)NC(=O)[C@H](CCN)NC(=O)[C@@H](CC(C)C)NC(=O)[C@H](C)N(C)C1=O [Compound 1271] ({CH2CO}-NYDWV[Bip][Nle][NMeA][dL][Dab]LVTCA-NH2; thioether N-14)    0.03
CC(C)C[C@@H]1NC(=O)[C@H](Cc2c[nH]c3ccccc23)NC(=O)[C@H](CC(=O)O)NC(=O)[C@H](Cc2ccc(O)cc2)NC(=O)[C@H](Cc2ccccc2)NC(=O)CSC[C@@H](C(=O)N[C@@H](C)C(N)=O)NC(=O)[C@H](CO)NC(=O)[C@H](C(C)C)NC(=O)[C@H](CC(C)C)NC(=O)[C@H](CC(N)=O)NC(=O)[C@@H](C)NC(=O)[C@H](C)N(C)C(=O)[C@H](C(C)C)NC(=O)[C@H](Cc2ccc(-c3ccccc3)cc2)NC1=O [Compound 1727] ({CH2CO}-FYDWL[Bip]V[NMeA][dA]NLVSCA-NH2; thioether N-14)    0.01
CCC[C@@H]1NC(=O)[C@H](C)N(C)C(=O)[C@H](C(C)C)NC(=O)[C@H](Cc2ccc(-c3ccccc3)cc2)NC(=O)[C@H](CC(C)C)NC(=O)[C@H](Cc2c[nH]c3ccccc23)NC(=O)[C@H](CC(=O)O)NC(=O)[C@H](Cc2ccc(O)cc2)NC(=O)[C@H](Cc2ccccc2)NC(=O)CSC[C@@H](C(=O)NCC(N)=O)NC(=O)[C@H](CO)NC(=O)[C@H](C(C)C)NC(=O)[C@H](CC(C)C)NC(=O)[C@H](CC(N)=O)NC1=O [Compound 1803] ({CH2CO}-FYDWL[Bip]V[NMeA][Nva]NLVSCG-NH2; thioether N-14)    0.2
CC[C@H](C)[C@@H]1NC(=O)[C@H](Cc2ccc(-c3ccccc3)cc2)NC(=O)[C@H](C(C)C)NC(=O)[C@H](Cc2c[nH]c3ccccc23)NC(=O)[C@H](CC(=O)O)NC(=O)[C@H](Cc2ccc(O)cc2)NC(=O)[C@H](CC(N)=O)NC(=O)CSC[C@@H](C(=O)N[C@@H](C)C(N)=O)NC(=O)[C@H](CO)NC(=O)[C@H](C(C)C)NC(=O)[C@H](CC(C)C)NC(=O)[C@H](CCCCN)NC(=O)[C@@H](CC(C)C)NC(=O)[C@H](C)N(C)C1=O [Compound 1480] ({CH2CO}-NYDWV[Bip]I[NMeA][dL]KLVSCA-NH2; thioether N-14)    0.04
